meta.source: patent US9925189B2

- measured.target: IC-GPCR2 (Homo sapiens, UniProt Q8TDV5, S309L)
- Construct: expressed in transfected cells
- Sequence (Q8TDV5 whole entry S309L): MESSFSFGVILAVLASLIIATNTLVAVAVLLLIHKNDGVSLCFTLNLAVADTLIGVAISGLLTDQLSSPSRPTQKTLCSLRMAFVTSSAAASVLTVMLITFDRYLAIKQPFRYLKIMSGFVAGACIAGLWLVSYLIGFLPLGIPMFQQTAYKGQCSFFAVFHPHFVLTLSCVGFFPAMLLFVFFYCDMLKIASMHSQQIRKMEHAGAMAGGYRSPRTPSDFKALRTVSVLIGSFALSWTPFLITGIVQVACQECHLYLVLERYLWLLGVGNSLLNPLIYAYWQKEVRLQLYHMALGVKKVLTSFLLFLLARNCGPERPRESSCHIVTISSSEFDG
- protocol.summary: Stimulation of cAMP in CHO cells stably expressing IC-GPCR2 (HTRF cAMP assay)
- Assay type: cell-based
- particulars: 0.5 h, 30 minutes, IC-GPCR2 stably expressing CHO cells, read-out: Activity at 10 uM (% change in FRET signal from DMSO control)
activation at 10 µM overview
measurement.name: activation at 10 µM

- molecule: "O=C(OCCF)N1CCC(c2nc(COc3ccc(-n4cnnn4)cc3)cs2)CC1 [Example 32]"
  measurement.name: "activation at 10 µM"
  result.value: "88%"
- molecule: "CCCCC(CC)COC(=O)N1CCC(c2nc(COc3ccc(-n4cnnn4)cc3)cs2)CC1 (stereo not shown) [Example 36]"
  measurement.name: "activation at 10 µM"
  result.value: "95%"
- molecule: "CS(=O)(=O)c1ccc(OCc2csc(C3CCN(C(=O)C45CC6CC(CC(C6)C4)C5)CC3)n2)cc1 [Example 39]"
  measurement.name: "activation at 10 µM"
  result.value: "9%"
- molecule: "CCc1cnc(N2CCC(c3nc(CNc4ccc(-n5cnnn5)cc4)cs3)CC2)nc1 [Example 161]"
  measurement.name: "activation at 10 µM"
  result.value: "79%"
